- Test system: TMD-8 cells
- method: Cell proliferation assay (CellTiter-Glo), TMD-8 cells
- Format: cell-based
- run_conditions: Homo sapiens, TMD8, 120 h, 5-day treatment, read-out: TMD8 cell growth (GI50 μM)
Measured log10 GI50 by item
experimental_endpoint: log10 GI50 (log10 of the value in µM)

{"columns": ["compound", "log10 GI50"],
 "data": [
  ["C=CC(=O)N1CC[C@@H](Nc2ncnc3[nH]c(C#Cc4ccc(Cl)cc4)cc23)C1", -2.57],
  ["CN(C)C/C=C/C(=O)N1CCN(c2ncnc3[nH]c(C#CCOc4ccccc4)cc23)CC1", -1.47],
  ["CN(C)C/C=C/C(=O)N1CC[C@@H](Nc2ncnc3[nH]c(C#CCOc4ccccc4Cl)cc23)C1", -1.92],
  ["C=CC(=O)N1CCC[C@@H](Nc2ncnc3[nH]c(C#Cc4ccc5c(c4)OCO5)cc23)C1", -2.40],
  ["C=CC(=O)N1CC[C@@H](Nc2ncnc3[nH]c(C#Cc4ccc5ncccc5c4)cc23)C1", -0.28],
  ["CN(C)C/C=C/C(=O)N1CCC(Nc2ncnc3[nH]c(C#CCOc4ccccc4)nc23)C1 (stereo not shown)", -0.77],
  ["C=CC(=O)N1CCC(Nc2ncnc3[nH]c(C#CCOc4ccc(F)cc4F)nc23)C1 (stereo not shown)", -2.00],
  ["C=CC(=O)N1CC[C@@H](Nc2ncnc3[nH]c(C#CCn4ncc5ccccc54)cc23)C1", -1.74],
  ["C=CC(=O)Nc1cccc(Nc2ncnc3[nH]c(C#Cc4ccsc4)cc23)c1", -1.77],
  ["C=CC(=O)N1CCC[C@@H](Nc2ncnc3[nH]c(C#Cc4ccccc4)cc23)C1", -1.18],
  ["C=CC(=O)N1CC[C@@H](Nc2ncnc3[nH]c(C#Cc4cccc(C)c4)cc23)C1", -2.15],
  ["C=CC(=O)N1CC[C@@H](Nc2ncnc3[nH]c(C#Cc4cccc(OC)c4)cc23)C1", -2.30],
  ["C=CC(=O)N1CC[C@@H](Nc2ncnc3[nH]c(C#CCOc4ccccc4Cl)cc23)C1", -3.00],
  ["C=CC(=O)N1CC[C@@H](Nc2ncnc3[nH]c(C#Cc4ccccc4F)cc23)C1", -1.80],
  ["C=CC(=O)N1CC[C@@H](Nc2ncnc3[nH]c(C#Cc4ccccc4OC)cc23)C1", 0.29],
  ["C=CC(=O)N1CC[C@@H](Nc2ncnc3[nH]c(C#CCOc4ccccc4)cc23)C1", -2.40]
]}
